Values were extracted from patent US6911477B2.

Where a name gives a salt, the structure may show the parent alone.
Readout Kind: melting point

Examples with answers:
Molecule | melting point
Cc1cccc(C)c1C(=NC(=Nc1ccccc1)N1CCC(O)CC1)Nc1ccc(F)cc1 (as salt: hydrochloride) [Example 9] | 163 to 165 °C
c1ccc(N=C(N=C(Nc2ccccc2)c2ccccc2)N2CCSCC2)cc1 (as salt: hydroiodid) [Example 13] | 216 to 218 °C (dec.)
Cc1cccc(C)c1C(=NC(=NC(C)C)N1CCCCC1C)Nc1ccc(F)cc1 (stereo not shown) (as salt: hydrochloride) [Example 99] | 208 to 210 °C (dec.)
Clc1ccccc1C(=NC(=Nc1ccccc1)N1CCCC1)Nc1ccccc1 (as salt: hydrochloride) [Example 30] | 228 to 230 °C
CC1CCCCN1C(=Nc1ccccc1)NC(=Nc1ccccc1)c1ccccc1 (stereo not shown) (as salt: hydroiodid) [Example 3] | 219 to 221 °C (dec.)
Fc1ccc(N=C(NC(=Nc2ccccc2)c2ccccc2)N2CCCC2)cc1 (as salt: hydrochloride) [Example 25] | 242 to 243 °C

Attention now shifts to the item below.
Summary for this molecule, Cc1cccc(C)c1C(=Nc1ccc(F)cc1)NC(=Nc1ccccc1)N1C(C)CCCC1C (stereo not shown) (as salt: hydrochloride) [Example 48] : melting point is 172 to 174 °C (dec.)

---

Counter-ions that a name gives are not always drawn.
Readout Kind: melting point

Solved entries:
Compound | Experimental Value
Cc1ccccc1C(=CC(=NC1CCCCC1)N1CCCCC1C)Nc1ccc(F)cc1 (stereo not shown) (as salt: hydrochloride) | > 125 °C (dec.)
CC1CCCCN1C(N=C(Nc1ccc(F)cc1)c1c(F)cccc1F)=Nc1ccccc1 (stereo not shown) (as salt: nitrate) | 163 to 165 °C (dec.)
CCC(C)N=C(NC(=Nc1ccc(F)cc1)c1c(C)cccc1C)N1CCCCC1C (stereo not shown) (as salt: hydrochloride) | 168 to 170 °C (dec.)

Kindly consider the entry below.
Reported melting point for Cc1cccc(C)c1C(=Nc1ccc(F)cc1)NC(=NC1CC1)N1CCCCO1 (as salt: hydrochloride) was 229 to 231 °C (dec.)

---

Counter-ions that a name gives are not always drawn.
The following molecules are shown together with reported melting point values.

These solved cases illustrate the format of a correct answer.
Molecule | melting point
Cc1cccc(C)c1C(=NC(=Nc1ccccc1)N1CCC(O)CC1C)Nc1ccc(F)cc1 (stereo not drawn) (as salt: hydrochloride) [Example 82] | 169 to 172 °C
Cc1cccc(C)c1C(=Nc1ccc(F)cc1)NC(=Nc1ccc(F)cc1)N1CCCCCC1 (as salt: hydrochloride) | 155 to 157 °C
Cc1cccc(C)c1C(=Nc1ccc(F)cc1)NC(=Nc1cccc(N)c1)N1CCCCC1C (stereo not drawn) (as salt: hydrochloride) | 210 to 213 °C
Cc1cccc(C)c1C(=NC(=Nc1ccccc1)N1CCC(=O)CC1)Nc1ccc(F)cc1 (as salt: hydrochloride) | 228 to 229 °C (dec.)
Cc1cccc(C)c1C(=Nc1ccc(F)cc1)NC(=Nc1ccc(N)cc1)N1CCCCC1C (stereo not drawn) (as salt: hydrochloride) | 179 to 181 °C

Okay, next one:
Recorded melting point (molecule Cc1ccccc1C(=NC(=Nc1ccccc1)N1CCCC(O)C1)Nc1ccc(F)cc1 (stereo not drawn) (as salt: hydrochloride) ): > 150 °C

---

Counter-ions that a name gives are not always drawn.
Attribute: melting point

Use these answered entries as a reference point.
Compound | melting point
Fc1ccccc1C(=Nc1ccccc1)NC(=Nc1ccccc1)N1CCCC1 (as salt: nitrate) | 194 to 196 °C
Cc1ccccc1C(=CC(=Nc1ccccc1)N1CCCCO1)Nc1ccc(F)cc1 (as salt: nitrate) | 151 to 153 °C
Cc1cccc(C)c1C(=Nc1ccc(F)cc1)NC(=Nc1ccccc1)N1CCCCCC1 (as salt: hydrochloride) | 243 to 245 °C
Cc1cccc(C)c1C(=NC(=Nc1ccccc1)N1CCC(O)CC1C)Nc1ccc(F)cc1 (stereo not shown) (as salt: hydrochloride) [Example 72] | 163 to 166 °C (dec.)
Fc1ccc(N=C(NC(=Nc2ccccc2)N2CCCCCC2)c2c(F)cccc2F)cc1 (as salt: nitrate) | 171 to 173 °C
CC1CCCCN1C(N=C(Nc1ccc(F)cc1)c1c(Cl)cccc1Cl)=Nc1ccccc1 (stereo not shown) (as salt: hydrochloride) | 153 to 155 °C (dec.)

Here is another compound to look at.
Just so you know, measured melting point for Cc1cccc(C)c1C(=Nc1ccccc1)NC(=Nc1ccccc1)N1CCCC1 (as salt: hydroiodid) came out at 255 to 257 °C
